Listed binders paired with reported EC50
study.target: T1, human alpha4beta7 (human, UniProt P13612 34-1032; P26010 20-798)
T1 construct: whole, on cells; also called a4b7; wt
T1 sequence (P13612 34-1032, chain 1 of 2): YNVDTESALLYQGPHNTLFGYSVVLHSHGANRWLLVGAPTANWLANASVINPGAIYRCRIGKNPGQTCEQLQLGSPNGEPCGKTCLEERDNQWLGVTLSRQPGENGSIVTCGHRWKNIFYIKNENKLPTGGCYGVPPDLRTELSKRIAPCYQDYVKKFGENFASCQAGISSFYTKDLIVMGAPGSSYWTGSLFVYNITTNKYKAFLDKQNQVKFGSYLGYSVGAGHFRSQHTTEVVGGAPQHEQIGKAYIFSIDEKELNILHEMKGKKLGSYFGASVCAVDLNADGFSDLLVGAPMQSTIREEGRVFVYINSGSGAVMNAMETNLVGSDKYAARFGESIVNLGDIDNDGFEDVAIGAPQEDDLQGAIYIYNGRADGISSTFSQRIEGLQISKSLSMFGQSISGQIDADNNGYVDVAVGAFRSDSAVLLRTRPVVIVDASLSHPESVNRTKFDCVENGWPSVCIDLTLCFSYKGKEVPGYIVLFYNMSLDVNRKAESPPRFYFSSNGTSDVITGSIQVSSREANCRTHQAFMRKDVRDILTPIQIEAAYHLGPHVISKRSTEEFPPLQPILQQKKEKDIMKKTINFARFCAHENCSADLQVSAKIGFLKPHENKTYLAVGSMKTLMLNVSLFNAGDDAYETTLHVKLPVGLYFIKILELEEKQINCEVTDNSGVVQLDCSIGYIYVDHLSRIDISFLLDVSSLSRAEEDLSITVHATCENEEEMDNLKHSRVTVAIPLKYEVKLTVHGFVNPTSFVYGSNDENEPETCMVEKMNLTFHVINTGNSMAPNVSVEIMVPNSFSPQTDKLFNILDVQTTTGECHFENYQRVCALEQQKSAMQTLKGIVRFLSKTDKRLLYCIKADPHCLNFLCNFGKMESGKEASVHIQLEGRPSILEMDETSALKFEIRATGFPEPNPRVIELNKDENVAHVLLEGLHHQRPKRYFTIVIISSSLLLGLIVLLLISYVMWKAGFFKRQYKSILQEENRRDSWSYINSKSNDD
T1 sequence (P26010 20-798, chain 2 of 2): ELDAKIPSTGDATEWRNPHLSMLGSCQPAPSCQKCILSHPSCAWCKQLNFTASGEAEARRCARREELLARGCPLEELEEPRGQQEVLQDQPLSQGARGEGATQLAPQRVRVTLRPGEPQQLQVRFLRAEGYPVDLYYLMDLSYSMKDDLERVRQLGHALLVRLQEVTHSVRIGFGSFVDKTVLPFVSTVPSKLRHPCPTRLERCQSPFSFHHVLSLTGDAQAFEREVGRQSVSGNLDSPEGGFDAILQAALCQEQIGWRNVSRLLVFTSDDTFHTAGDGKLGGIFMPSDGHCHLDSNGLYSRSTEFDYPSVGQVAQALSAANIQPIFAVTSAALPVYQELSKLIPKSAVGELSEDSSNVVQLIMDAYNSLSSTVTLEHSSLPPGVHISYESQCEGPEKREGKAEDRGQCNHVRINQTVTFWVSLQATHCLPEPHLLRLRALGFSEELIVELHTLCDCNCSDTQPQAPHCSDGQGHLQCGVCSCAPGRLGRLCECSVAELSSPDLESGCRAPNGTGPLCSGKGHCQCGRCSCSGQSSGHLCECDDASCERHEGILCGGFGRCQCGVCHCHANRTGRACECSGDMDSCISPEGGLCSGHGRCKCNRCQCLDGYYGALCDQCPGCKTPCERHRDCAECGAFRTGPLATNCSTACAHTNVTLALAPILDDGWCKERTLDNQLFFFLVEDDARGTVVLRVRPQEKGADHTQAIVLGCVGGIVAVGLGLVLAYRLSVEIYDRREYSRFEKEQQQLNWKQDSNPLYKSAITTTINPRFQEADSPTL
experimental.protocol: FACS, biotinylated antibody on human CD4+CD45RA- memory T cells
Reply with just the number (in ng/mL).

| binder | numeric.result |
| --- | --- |
| 22B2 (antibody, V domains shown, Fully human monoclonal from XenoMouse (human IgG2 or IgG4); kappa light chain; also called 22B2K; 22B2H) VH: EVQLVQSGAEVKEPGESLKISCKGSGYIFTSYWIAWVRQLPGKGLEWMGIIDPNDSDTRYSPSFQGQVTISADKSIHTAYLQWSSLKASDTAMYYCATHRLWLGTLPGGFYIWGQGTMVTVSS VL: DVQMTQSPSSLSASVGDRVTITCQASQDITDYLNWYQQKPGKAPKLLIYDTSNLEAGVPSRFSGSGSGTDFTFTISSLQPEDIATYYCQQYDILPYSFGQGTDLEIK | 5.1 |
| 3A5 (antibody, V domains shown, Fully human monoclonal from XenoMouse (human IgG2 or IgG4); kappa light chain; also called 3A5K; 3A5H) VH: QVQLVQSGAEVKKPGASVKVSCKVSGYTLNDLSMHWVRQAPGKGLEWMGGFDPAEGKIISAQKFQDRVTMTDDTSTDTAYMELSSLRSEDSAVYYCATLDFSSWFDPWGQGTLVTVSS VL: DIQMTQSPSSVSASVGDRVTITCRASQGVISWLAWYQQKPGMAPKLLIYAASILQSGVPSRFSGSGSGTDFTLTISSLQPEDFATYYCQQANSFPWTFGQGTNVEIK | 5.6 |
| 26G2 (antibody, V domains shown, Fully human monoclonal from XenoMouse (human IgG2 or IgG4); kappa light chain; also called 26G2k; 26G2K) VH: QVQLVESGGGLVKPGGSLRLSCAASGFTFSDYYMSWIRQAPGKGLEWVSYISSIGSAIHYADSVKGRFTISRDNAKNSLYLQMNSLRAEDTAVYYCAREYSSGWAYFDYWGQGTLVTVSS VL: DIQMTQSPSSVSASVGDRVTITCRASQDISSWLAWYQQKPGTAPKVLIYSASSLQNGVPSRFSGRGSGTDFALTISSLQPEDFATYYCQQADSFPWTFGRGTKVEIK | 32.6 |
| 19G6 (antibody, V domains shown, Fully human monoclonal from XenoMouse (human IgG2 or IgG4); kappa light chain; also called 19G6K; 19G6H) VH: QVQLVESGGDLVKPGGSLRLSCAASGFTFSDYYMSWIRQAPGKGLEWISYISSSGSTMYYADSVKGRFTISRVNAKNSLYLQMNSLRAEDTAVYYCARDRSSGLVSFDYWGQGTLVTVSS VL: DIQMTQSPSSLSASVGDRVTISCQASQDINTYLNWYQQKPGKVPKLLIYDASNLETGVPSRFSGSGSGTDFTFTISGLQPEDIATYYCQQFDNLPITFGQGTRLEIK | 32.9 |

17C8 (antibody, V domains shown, Fully human monoclonal from XenoMouse (human IgG2 or IgG4); kappa light chain; also called 17C8K; 17C8H) VH: QVQLVESGGGLVKPGGSLRLSCAASGFTFSDYYMSWIRQAPGKGLEWLSYISNSGSAMYYADSVKGRFTISRDNARNSLYLQMNSLRAEDTAVYYCAREYSSGWFFFESWGQGTLVTVSS VL: EIVMTQSPATLSVSPGERATLSCRASQSVSSNLVWYQQKPGQAPRLLIYGASTRATGIPARFSGSGSGTDFTLTISSLQSEDFAVYYCQQYDDWPPLTFGGGTTVEIK has a reported EC50 of 22.9

EC50 measured on 18A11 (antibody, V domains shown, Fully human monoclonal from XenoMouse (human IgG2 or IgG4); kappa light chain; also called 18A11K; 18A11H) VH: QVQLVQSGAEVKKPGASVKVSCKVSGYTLSDLSIHWVRQAPGKGLEWMGGFDPQDGETIYAQKFQGRVTMTEDTSTDTAYMELSSLKSEDTAVYYCATGSSSSWFDPWGQGTLVTVSS VL: DIQMTQSPSSVSASVGDRVTITCRASQGISSWLAWYQQKPGKAPKLLIYGASNLESGVPSRFSGSGSGTDFTLTISSLQPEDFANYYCQQANSFPWTFGQGTKVEIK = 4.7

GET /value?item= 26H3 (antibody, V domains shown, Fully human monoclonal from XenoMouse (human IgG2 or IgG4); kappa light chain; also called 26H3K; 26H3H) VH: EVQLVQSGAEVKKPGESLKISCKGSGYSFTGYWIGWVRQMPGKGLEWMGIIYPYDSDTRYSPSFQGQVTISADKSINTAYLQWSSLKASDTAMFYCASHRLWLGEFPGPLNIWGQGTMVTVSS VL: DIQMTQSPSSLSASVGDRVTITCQASQDISNYLNWYQQKPGKAPKLLIYDASNLETGVPSRFSGSGSGTDFTFTINSLQPEDIATYFCQQYDNLPCSFGQGTKLEIK &field=EC50 returns 9.3
